molecular target: c-Src kinase domain (Homo sapiens, UniProt P12931); assay: pTyr-Var library bacterial peptide display kinase screen (enrichment scores); format: biochemical; settings: sheet "Src"; variant peptide versus its reference peptide in the pTyr-Var library screen;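 also: log2 fold change in enrichment of variant over reference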
Assign labels as follows, please: TRUE for Screen below -0.1; FALSE for Screen equal to or exceeding -0.1.

Previously resolved entries follow.
• PLFGEYFTLQI [TP53_Y327_D324Y_YF] = FALSE
• HAVFIYDICHV [TWNK_Y508_V507I_YF] = TRUE

State whether -0.1 exceeds Screen recorded for QNTGFYFDLFG [PTPN11_Y62_D61Y_YF] . TRUE

State whether -0.1 exceeds Screen recorded for PSAELYSFALP [PDGFRB_Y716_N718Y_YF] . FALSE

State whether -0.1 exceeds Screen recorded for FGSIMYEFVGK [SLC18A1_Y251_V249I] . TRUE

State whether -0.1 exceeds Screen recorded for DLHGIYQKLVI [TTN_Y21998_R21995H] . FALSE

State whether -0.1 exceeds Screen recorded for CEQELYSQLVF [WAS_Y102_W97C_YF] . TRUE

Cited source for all entries: paper PMC10065799
